test_description: chemical genetic growth profiling, strain panel (AID 1159580);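 note: tested at 20 µM; growth read once vehicle control cultures reached saturation at 30 °C; 1 = growth at the plate median or of vehicle wells; lower values mean less growth of the strain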
experimental_context: S. cerevisiae deletion strains, growth OD, locus YER167W, strain BCK2, active compounds read low
In all, about 5,500 compounds went through this assay and about 2,000 (36%) were called active. Roughly 18% stayed inconclusive and do not appear here. The list shows a part of the results.
Would you mind telling me the reported normalized growth of each entry?
Field format: numeric only.

Request: Fill in: normalized growth of CCOC(=O)C1C(C=C(C)C)C1(C)C (stereo unspecified) is ___
Response: 0.998

Request: What value of normalized growth has been recorded for this entry: O=c1c(-c2cc(O)c(O)c(O)c2)coc2cc(O)c(O)c(O)c12
Response: 0.972

Request: Given the compound COc1c(O)cccc1O , what is its reported normalized growth?
Response: 0.98

Request: Given the entry CCC(/C=C/[C@@H](C)[C@H]1CCC2C3CC=C4C[C@@H](O)CC[C@]4(C)C3CC[C@@]21C)C(C)C (stereo partly specified) , report its measured normalized growth.
Response: 0.997

Request: Given the entry CC(=O)[C@H]1CCC2C3CC=C4C[C@@H](O)CC[C@]4(C)C3CC[C@@]21C (stereo partly specified) , report its measured normalized growth.
Response: 0.926

Request: normalized growth for CCC(CCC(C)[C@H]1CCC2C3CC=C4C[C@@H](O)CC[C@]4(C)C3CC[C@@]21C)C(C)C (stereo partly specified) ?
Response: 1.01

Request: Which normalized growth is reported for this compound? COc1ccc(-c2cc(=O)c3c(OC(C)=O)cc(OC(C)=O)cc3o2)cc1
Response: 0.993

Request: Which normalized growth reading was recorded for the compound CC(=O)Oc1cc(-c2coc3cc(OC(C)=O)c(OC(C)=O)c(OC(C)=O)c3c2=O)cc(OC(C)=O)c1OC(C)=O ?
Response: 0.949

Request: Sample CC(=O)N(O)CCCCCNC(=O)CCC(=O)N(O)CCCCCNC(=O)CCC(=O)N(O)CCCCCN — what was its normalized growth?
Response: 1.05

Request: Need normalized growth of NS(=O)(=O)c1cc2c(cc1C(F)(F)F)NCNS2(=O)=O , thanks.
Response: 1.01

Request: Entry under review: N[C@@H]1CONC1=O . Reported normalized growth?
Response: 1.01

---

test_description: chemical genetic growth profiling, strain panel (AID 1159580);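 note: tested at 20 µM; growth read once vehicle control cultures reached saturation at 30 °C; 1 = growth at the plate median or of vehicle wells; lower values mean less growth of the strain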
experimental_context: S. cerevisiae deletion strains, growth OD, locus YHR087W, strain rtc3, active compounds read low
Out of some 5,500 compounds screened, about 2,000 (36%) were called active. Inconclusive results (about 18%) are left out. The list shows a part of the results.
readout_name: normalized growth
Output: the number by itself.

Request: // lookup normalized growth for CCCCCn1c(Sc2ncc([N+](=O)[O-])s2)n[nH]c1=O
Response: 0.53

Request: Find the recorded normalized growth belonging to O=C1NC(c2ccccc2Cl)Nc2ccccc21 (configuration not stated) and report it.
Response: 0.998

Request: Entry CCN1CN=C(SCc2ccc(C)cc2)NC1 : reported normalized growth = ?
Response: 0.968

Request: Reported normalized growth for Cc1ccc(COc2ccc(C)nc2[N+](=O)[O-])cc1 : what is it?
Response: 0.959

Request: Request the reported normalized growth associated with Clc1ccc(-c2csc(-c3ccno3)n2)s1
Response: 0.954

Request: Using the record for CCOC(=O)c1ccc2oc3ccc(O)cc3c(=O)c2c1 , report its normalized growth.
Response: 0.937

Request: Data request, read-out normalized growth, for CSC(=NCc1cccnc1)NC#N
Response: 1

Request: Item N/C(=N/OS(=O)(=O)c1ccc(Cl)cc1)c1ccc(C(F)(F)F)cc1 has what recorded normalized growth?
Response: 1.01

Request: Name the reported normalized growth value associated with the compound CC(C)(C)C(=O)N1CCN(c2ncccc2C(F)(F)F)CC1
Response: 0.973

Request: Requested read-out: normalized growth. Entry: Cc1onc(-c2c(Cl)cccc2Cl)c1C(=O)N1CCN(c2ncccc2C(F)(F)F)CC1
Response: 1

Request: Could you tell me which normalized growth is on file for N#CC1COc2ccccc2O1 (configuration not stated) ?
Response: 0.989

Request: // normalized growth lookup, key: CCOC(=O)c1c(SC)[nH]c2c(C(F)(F)F)cccc2c1=O
Response: 0.975

Request: Which value of normalized growth has been reported for COC(=O)c1cn(Cc2ccc(C(F)(F)F)cc2)cc(F)c1=O in the records?
Response: 1

Request: I'd like to know its normalized growth. The compound in question is Cc1cc(C(F)(F)F)c(C#N)c(=O)[nH]1
Response: 1

Request: # normalized growth lookup, item O=C1CCCc2c1c1ccccc1n2Cc1ccccc1
Response: 0.965

Request: Give its normalized growth value. Item: O=C(NNC(=O)c1ccccc1[N+](=O)[O-])c1ccc(Cl)cc1
Response: 0.994

Request: Query: normalized growth; subject: O=C(O)c1coc2ccccc2c1=O
Response: 0.96

---

test_description: chemical genetic growth profiling, strain panel (AID 1159580);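 note: tested at 20 µM; growth read once vehicle control cultures reached saturation at 30 °C; 1 = growth at the plate median or of vehicle wells; lower values mean less growth of the strain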
experimental_context: S. cerevisiae deletion strains, growth OD, locus YLL041C, strain sdh2
Screen size: about 5,500 compounds; about 2,000 (36%) were called active. Not shown: some 18% with an inconclusive outcome. No stated cut-off is given here; in the data, active means normalized growth mostly below about 0.91 (no sharp cut-off); inconclusive means no clear call, values can overlap the other calls; inactive means mostly above about 0.92. This is one part of the list.
Hi there, use one of these labels in your reply, thanks! yes = active, no = inactive

Request: For this molecule, state the assay outcome: O=c1cc(-c2ccc(O)c(O)c2)oc2ccccc12
Response: no

Request: Dear all, I need the recorded test outcome for COc1ccc(-c2cc(=O)c3c(OC(C)=O)cc(OC(C)=O)cc3o2)cc1 , thank you.
Response: no

Request: Which outcome did this test record for the molecule Cn1nnnc1SCC1=C(C(=O)O)N2C(=O)C(NC(=O)C(O)c3ccccc3)C2SC1 (stereo not given) ?
Response: no

Request: Per the records of this test, what outcome belongs to CN(C)CC/C=C1/c2ccccc2COc2ccccc21 ?
Response: no

Request: What outcome does the record of this test show for COc1ccc(-c2cc(=O)c3ccccc3o2)cc1 ?
Response: yes

Request: In this assay, the call recorded for COC(=O)C1=C(C)NC(C)=C(C(=O)OC)C1c1ccccc1[N+](=O)[O-] was what?
Response: no

Request: Identify the outcome logged in this assay for the molecule shown: COc1cccc(-c2cc(=O)c3ccc(OC)cc3o2)c1
Response: no

Request: Outcome logged for CN(C)CCC=C1c2ccccc2C=Cc2ccccc21 in this assay:
Response: no

Request: Outcome logged for CC(=O)Oc1cc(-c2coc3cc(OC(C)=O)c(OC(C)=O)c(OC(C)=O)c3c2=O)cc(OC(C)=O)c1OC(C)=O in this assay:
Response: no

Request: How was COC(=O)C1=C(C)NC(C)=C(C(=O)OCCN(C)Cc2ccccc2)C1c1cccc([N+](=O)[O-])c1 (stereo not given) classified in this test?
Response: no

---

Please go through the items and note down their normalized growth.
test_description: chemical genetic growth profiling, strain panel (AID 1159580);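 note: tested at 20 µM; growth read once vehicle control cultures reached saturation at 30 °C; 1 = growth at the plate median or of vehicle wells; lower values mean less growth of the strain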
experimental_context: S. cerevisiae deletion strains, growth OD, locus YER111C, strain swi4, active compounds read low
Out of some 5,500 compounds screened, about 2,000 (36%) were called active. Roughly 18% stayed inconclusive and do not appear here. The list shows a part of the results.

Request: Record request: normalized growth value, item CC(=O)O[C@H]1C[C@@H](O)C(C)(C)C2C[C@@H](OC(C)=O)[C@]3(C)C(CC[C@@]4(C)[C@H](c5ccoc5)OC(=O)C5OC543)[C@]21C (stereo partly drawn)
Response: 1.02 (inactive)

Request: Please report the recorded normalized growth for O=c1cc(-c2ccc(O)cc2)oc2ccc(O)cc12 .
Response: 0.973 (inactive)

Request: Which normalized growth value belongs to NC(=O)CC[C@@H](N)C(=O)O ?
Response: 1.02 (inactive)

Request: Using the record for CC(=O)O[C@@H]1CC2C(C)(C)CCC(=O)[C@]2(C)C2CC[C@@]3(C)[C@H](c4ccoc4)OC(=O)C4OC43[C@@]21C (stereo partly drawn) , report its normalized growth.
Response: 0.987 (inactive)

Request: Which measured normalized growth value corresponds to O=c1cc(-c2ccc(O)c(O)c2)oc2ccccc12 ?
Response: 0.962 (inactive)

Request: I have this molecule here, CCCCCCCCCc1ccc(O)cc1 , and I need its recorded normalized growth.
Response: 0.0713 (active)

Request: Please look up its normalized growth: COc1cc2cc[n+]3cc4c(OC)c(OC)ccc4cc3c2cc1OC
Response: 0.972 (inactive)

Request: Bench note: what normalized growth did Nc1nnc(-c2cccc(Cl)c2Cl)c(N)n1 show?
Response: 1.03 (inactive)

Request: Sample COc1cccc(-c2cc(=O)c3ccc(OC)cc3o2)c1 — what was its normalized growth?
Response: 0.957 (inactive)

Request: I have this molecule here, CC(=O)N(O)CCCCCNC(=O)CCC(=O)N(O)CCCCCNC(=O)CCC(=O)N(O)CCCCCN , and I need its recorded normalized growth.
Response: 0.973 (inactive)

Request: Need normalized growth, item CC(=O)O[C@@H]1CC2C(C)(C)C(=O)CC[C@]2(C)C2CC[C@@]3(C)[C@H](c4ccoc4)OC(=O)C4OC43[C@@]21C (stereo partly drawn)
Response: 0.961 (inactive)

Request: # input molecule: C[N+]1(CCCCC[N+]2(C)CCCC2)CCCC1 ; wanted: its normalized growth
Response: 0.983 (inactive)

Request: Find the recorded normalized growth belonging to CN(C)CCC=C1c2ccccc2CCc2ccccc21 and report it.
Response: 0.97 (inactive)

Request: Report normalized growth for CC(C)(Oc1ccc(Cl)cc1)C(=O)O please.
Response: 1.01 (inactive)

Request: May I ask what normalized growth has been recorded for CN(C)C(=O)Oc1cc(OC(=O)N(C)C)cc(C(O)CNC(C)(C)C)c1 (stereo not drawn) ?
Response: 1.03 (inactive)

Request: normalized growth lookup needed for CCCCOc1cc(CC2CNC(=O)N2)ccc1OC (stereo not drawn) , thanks.
Response: 1.01 (inactive)

Request: Returns the measured normalized growth for the input molecule. Input: NCCc1ccc(O)cc1
Response: 0.981 (inactive)

Request: Which normalized growth value belongs to CCCCCCc1ccc(O)cc1O ?
Response: 0.976 (inactive)

Request: For CCCCC1C(=O)N(c2ccccc2)N(c2ccccc2)C1=O , what is its reported normalized growth?
Response: 0.979 (inactive)

Request: Entry CC(=O)O.CC(=O)O.[Cd] : reported normalized growth = ?
Response: 0.872 (active)

Request: Return reported normalized growth; argument: CC(=O)O[C@@H]1CC2C(C)(C)[C@H](O)C[C@H](O)[C@]2(C)C2CC[C@@]3(C)[C@H](c4ccoc4)OC(=O)[C@H]4O[C@]43[C@@]21C (stereo partly drawn)
Response: 0.976 (inactive)

Request: Dear colleague, I am looking for the recorded normalized growth of the following molecule: CN(C)CC/C=C1/c2ccccc2COc2ccccc21
Response: 1.03 (inactive)

Request: Using the record for NCCc1ccc(O)c(O)c1 , report its normalized growth.
Response: 0.993 (inactive)

// data source = PubChem BioAssay AID1159580
